Target: panel of 442 kinases (Homo sapiens, UniProt P36888, D835H)
Construct: purchased Ambit Biosciences (scanMAXX KINOMEscan)
Assay: biochemical
Type: binding
Conditions: FLT3(D835H); 1 µM; read-out: % of control at 1 µM
Please go through the items and note down their remaining activity at 1 µM.
Expressed in %, but write only the number.

Q: I am curious: what remaining activity at 1 µM value has been reported for "Nc1cc(C(F)(F)F)c(-c2cc(N3CCOCC3)nc(N3CCOCC3)n2)cn1" ?
Result: 89

Q: Same for "COc1ncc(-c2ccc3nccc(-c4ccnnc4)c3c2)cc1NS(=O)(=O)c1ccc(F)cc1F"
Result: 100

Q: Same for "Cn1c(=O)n(-c2ccc(C(C)(C)C#N)cc2)c2c3cc(-c4cnc5ccccc5c4)ccc3ncc21"
Result: 26

Q: Same for "FC(F)c1nc2ccccc2n1-c1nc(N2CCOCC2)nc(N2CCOCC2)n1"
Result: 100
